B1: VAMP4 (parent)
chain: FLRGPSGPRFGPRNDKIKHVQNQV

Variants of: B1
PROTOCOL: protein stability index of a GFP-peptide fusion (GPS, HEK-293T) (PSI 1-6); higher = more stable;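 further: lentivirally expressed fusions sorted by FACS into six bins by GFP to DsRed ratio, PSI derived from sequencing read proportions per bin multiplied by bin number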
TEST_CONDITIONS: c terminus: a fixed tail appended
If the reported protein stability index equals or exceeds 3, assign yes. If not, assign no.

Past entries and their recorded results:
# VAR, ANSWER_LABEL
measured = [
    ("F10A", "no"),
    ("R13N", "yes"),
    ("N22Y", "no"),
    ("R9S", "no"),
    ("P12K", "no"),
]

query: Tell me whether protein stability index is at least 3 here: R3T
result: yes

query: Tell me whether protein stability index is at least 3 here: R9Y
result: no

query: Tell me whether protein stability index is at least 3 here: L2N
result: no

query: Tell me whether protein stability index is at least 3 here: G11M
result: no

query: Tell me whether protein stability index is at least 3 here: P8W
result: no
